# assaySystem: UniProt Q07343
# procedureDetails: cAMP HTRF assay to determine the activity of hPDE4B1
# Assay type: biochemical
# protocolConditions: IC50 inhibition of PDE4B; human recombinant PDE4B1, cAMP HTRF assay
recordedEndpoint: IC50

>  <molecule>
O=C(c1ccc2c(c1)N(c1ncc(-c3ccccc3F)cn1)CC21CC1)N1CCCCC12COC2 [Compound 80]

>  <recordedEndpoint>
IC50

>  <recordedResult>
0.1 to 1 µM

$$$$
>  <molecule>
O=C(c1ccc2c(c1)N(c1ncc(-c3ccc(F)cc3F)cn1)CC21CC1)N1CCOCC1 [Compound 8]

>  <recordedEndpoint>
IC50

>  <recordedResult>
< 0.1 µM

$$$$
>  <molecule>
COc1ccsc1-c1cnc(N2CC3(CC3)c3ccc(C(=O)N4CCNC(=O)C4)cc32)nc1 [Compound 177]

>  <recordedEndpoint>
IC50

>  <recordedResult>
< 0.1 µM

$$$$
>  <molecule>
O=C(c1ccc2c(c1)N(c1ncc(Oc3ccccc3F)cn1)CC21CC1)N1CCOCC1 [Compound 179]

>  <recordedEndpoint>
IC50

>  <recordedResult>
0.1 to 1 µM

$$$$

---

# assaySystem: human PDE4B1 (Homo sapiens (Human), UniProt Q07343)
# Sequence (Q07343 whole entry): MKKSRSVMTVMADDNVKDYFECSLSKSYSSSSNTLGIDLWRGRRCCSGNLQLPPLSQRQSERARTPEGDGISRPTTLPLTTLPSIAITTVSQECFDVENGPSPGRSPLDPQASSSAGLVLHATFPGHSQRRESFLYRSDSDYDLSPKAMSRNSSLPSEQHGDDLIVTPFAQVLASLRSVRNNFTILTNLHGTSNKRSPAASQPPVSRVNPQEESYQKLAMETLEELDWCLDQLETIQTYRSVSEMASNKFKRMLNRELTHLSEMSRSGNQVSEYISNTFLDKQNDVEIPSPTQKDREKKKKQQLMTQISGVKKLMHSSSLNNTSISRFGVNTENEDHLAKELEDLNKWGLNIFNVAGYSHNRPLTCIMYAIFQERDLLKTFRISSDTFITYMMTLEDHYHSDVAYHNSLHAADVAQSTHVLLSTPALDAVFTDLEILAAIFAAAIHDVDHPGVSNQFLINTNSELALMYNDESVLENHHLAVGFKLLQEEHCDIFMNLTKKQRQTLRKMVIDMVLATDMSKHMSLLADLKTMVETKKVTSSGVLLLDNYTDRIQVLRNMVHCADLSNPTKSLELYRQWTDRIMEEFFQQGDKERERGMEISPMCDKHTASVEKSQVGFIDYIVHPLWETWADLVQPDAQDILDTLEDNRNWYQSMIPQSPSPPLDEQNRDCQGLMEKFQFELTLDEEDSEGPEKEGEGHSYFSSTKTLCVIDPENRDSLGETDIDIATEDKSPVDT
# procedureDetails: cAMP HTRF assay to determine the activity of hPDE4B1
# Format: biochemical
# protocolConditions: IC50 inhibition of PDE4B; human recombinant PDE4B1, cAMP HTRF assay
Listed compounds paired with reported IC50

>  <compound>
O=C(NCCN1CCCC1=O)c1ccc2c(c1)N(c1ncc(-c3ccccc3F)cn1)CC21CC1 [Compound 78]

>  <assaySystem>
human PDE4B1 (Homo sapiens (Human), UniProt Q07343)

>  <IC50>
0.1 to 1 µM

$$$$
>  <compound>
Cc1ccc(F)c(-c2cnc(N3CC4(CC4)c4ccc(C(=O)N5CCOCC5)cc43)nc2)c1 [Compound 52]

>  <assaySystem>
human PDE4B1 (Homo sapiens (Human), UniProt Q07343)

>  <IC50>
< 0.1 µM

$$$$
>  <compound>
N#Cc1ccc(-c2cnc(N3CC4(CC4)c4ccc(C(=O)N5CCOCC5)cc43)nc2)s1 [Compound 143]

>  <assaySystem>
human PDE4B1 (Homo sapiens (Human), UniProt Q07343)

>  <IC50>
< 0.1 µM

$$$$
>  <compound>
O=C(c1ccc2c(c1)N(c1ncc(-c3cc(F)cc(F)c3)cn1)CC21CC1)N1CCOCC1 [Compound 50]

>  <assaySystem>
human PDE4B1 (Homo sapiens (Human), UniProt Q07343)

>  <IC50>
< 0.1 µM

$$$$
>  <compound>
Cc1ccnc(-c2cnc(N3CC4(CC4)c4ccc(C(=O)N5CCOCC5)cc43)nc2)c1 [Compound 192]

>  <assaySystem>
human PDE4B1 (Homo sapiens (Human), UniProt Q07343)

>  <IC50>
< 0.1 µM

$$$$
>  <compound>
CN(C(=O)c1ccc2c(c1)N(c1ncc(-c3ccccc3F)cn1)CC21CC1)c1ccncc1 [Compound 88]

>  <assaySystem>
human PDE4B1 (Homo sapiens (Human), UniProt Q07343)

>  <IC50>
0.1 to 1 µM

$$$$
>  <compound>
CS(=O)(=O)c1ccc(-c2cnc(N3CC4(CC4)c4ccc(C(=O)N5CCOCC5)cc43)nc2)c(F)c1 [Compound 29]

>  <assaySystem>
human PDE4B1 (Homo sapiens (Human), UniProt Q07343)

>  <IC50>
< 0.1 µM

$$$$
>  <compound>
O=C(c1ccc2c(c1)N(c1ncc(-c3ccc(CO)o3)cn1)CC21CC1)N1CCOCC1 [Compound 142]

>  <assaySystem>
human PDE4B1 (Homo sapiens (Human), UniProt Q07343)

>  <IC50>
< 0.1 µM

$$$$
>  <compound>
O=C(c1ccc2c(c1)N(c1ncc(-c3ccccc3F)cn1)CC21CC1)N1CCN(C2CC2)CC1 [Compound 66]

>  <assaySystem>
human PDE4B1 (Homo sapiens (Human), UniProt Q07343)

>  <IC50>
1 to 10 µM

$$$$
>  <compound>
COc1cccc(-c2cnc(N3CC4(CC4)c4ccc(C(=O)N5CCOCC5)cc43)nc2)c1 [Compound 48]

>  <assaySystem>
human PDE4B1 (Homo sapiens (Human), UniProt Q07343)

>  <IC50>
< 0.1 µM

$$$$
>  <compound>
NC(=O)c1ccc(F)c(-c2cnc(N3CC4(CC4)c4ccc(C(=O)N5CCOCC5)cc43)nc2)c1 [Compound 35]

>  <assaySystem>
human PDE4B1 (Homo sapiens (Human), UniProt Q07343)

>  <IC50>
< 0.1 µM

$$$$
>  <compound>
CCN(CC)C(=O)c1ccc2c(c1)N(c1ncc(-c3ccccc3F)cn1)CC21CC1 [Compound 47]

>  <assaySystem>
human PDE4B1 (Homo sapiens (Human), UniProt Q07343)

>  <IC50>
0.1 to 1 µM

$$$$
>  <compound>
O=C(c1ccc2c(c1)N(c1ncc(-c3ccsc3Cl)cn1)CC21CC1)N1CCOCC1 [Compound 132]

>  <assaySystem>
human PDE4B1 (Homo sapiens (Human), UniProt Q07343)

>  <IC50>
< 0.1 µM

$$$$
>  <compound>
COc1ccc(-c2cnc(N3CC4(CC4)c4ccc(C(=O)N5CCOCC5)cc43)nc2)c(F)c1 [Compound 17]

>  <assaySystem>
human PDE4B1 (Homo sapiens (Human), UniProt Q07343)

>  <IC50>
< 0.1 µM

$$$$
>  <compound>
CC1(C)CN(c2ncc(-c3ccccc3F)cn2)c2cc(C(=O)N3CCOCC3)ccc21 [Compound 9]

>  <assaySystem>
human PDE4B1 (Homo sapiens (Human), UniProt Q07343)

>  <IC50>
0.1 to 1 µM

$$$$
>  <compound>
N#Cc1cccc(-c2cnc(N3CC4(CC4)c4ccc(C(=O)N5CCOCC5)cc43)nc2)c1 [Compound 56]

>  <assaySystem>
human PDE4B1 (Homo sapiens (Human), UniProt Q07343)

>  <IC50>
< 0.1 µM

$$$$
